This section presents compounds with their documented inhibition at 10 µM values.
- Target System: BTK (Homo sapiens, UniProt Q06187)
- Sequence (Q06187 402-655 limits assumed): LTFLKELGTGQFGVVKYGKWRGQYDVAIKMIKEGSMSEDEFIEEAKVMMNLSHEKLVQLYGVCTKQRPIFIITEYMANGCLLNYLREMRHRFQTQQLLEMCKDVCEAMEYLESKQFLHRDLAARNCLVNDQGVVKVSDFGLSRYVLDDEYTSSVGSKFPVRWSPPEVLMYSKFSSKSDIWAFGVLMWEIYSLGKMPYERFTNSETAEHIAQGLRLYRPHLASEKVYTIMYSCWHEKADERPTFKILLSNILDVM
- Assay Explanation: biochemical
- Recorded Conditions: read-out: BTK inhibition (%), 0.75 uM BTK, […] probe 3l, 15 min preincubation

Previously resolved entries follow.
compound="COC(=O)CCSCc1ccc(-c2onc(C)c2NC(=O)OC(C)c2ccccc2Cl)cc1 (centres unmarked)" target_system="BTK (Homo sapiens, UniProt Q06187)" value_observed=20.2%
compound=Cc1ccnc2c1NC(=O)c1cccnc1N2C1CC1 target_system="BTK (Homo sapiens, UniProt Q06187)" value_observed=-3.1%
compound=N#CC(=C(/N)Sc1ccccc1N)/C(C#N)=C(\N)Sc1ccccc1N target_system="BTK (Homo sapiens, UniProt Q06187)" value_observed=-4.1%

Req: State the recorded inhibition at 10 µM for this entry: Cc1ccc(Cl)c(Nc2ccccc2C(=O)O)c1Cl
Resp: 9.7%

Req: Query C=C1[C@H](O)C[C@H]2[C@@H](/C=C(\C)C(=O)[C@@]3(O)C[C@H](C)[C@H](O)[C@@H]3[C@H]1O)C2(C)C next
Resp: -8.6%
